The measured values listed here are drawn from paper PMC3479139.

# IC50 per record follows
# studySystem: APE1 (Homo sapiens)
# Construct: made in house
# Sequence (P27695 whole entry): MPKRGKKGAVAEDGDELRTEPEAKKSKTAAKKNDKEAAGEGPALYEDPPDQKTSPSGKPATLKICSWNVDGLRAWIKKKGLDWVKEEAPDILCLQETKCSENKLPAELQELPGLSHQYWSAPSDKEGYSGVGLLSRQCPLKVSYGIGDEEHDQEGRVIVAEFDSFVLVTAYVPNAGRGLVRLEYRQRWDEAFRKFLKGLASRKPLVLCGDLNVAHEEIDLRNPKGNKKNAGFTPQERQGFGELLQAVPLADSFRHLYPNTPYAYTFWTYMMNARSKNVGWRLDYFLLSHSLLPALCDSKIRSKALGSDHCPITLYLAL
# procedureText: Fluorogenic kinetic qHTS APE1 incision assay (primary screen and retest of cherrypicked samples);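 further: purified APE1 cleaving a fluorophore/dark-quencher labelled 17-mer duplex DNA bearing a tetrahydrofuran AP site, fluorescence rise followed kinetically over the first 2 min, inhibition normalized to controls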
# Format: biochemical
# conditionSet: retest of cherrypicked sample; read-out: APE1 Retest IC50
Write the answer as a number in µM, unit excluded.

Examples with their reported IC50 follow.
| molecule | unitsText | dataValue |
| --- | --- | --- |
| CC(=O)c1cccc(OCC(=O)N(C)CC(=O)NCc2ccco2)c1 | µM | 9.1 |
| COc1ccc(Cc2nnc(NC(=O)Cc3cccs3)s2)cc1OC | µM | 2 |
| O=c1cc(-c2ccc(O)cc2)oc2c(C3OCC(O)C(O)C3O)c(O)c(C3OC(CO)C(O)C(O)C3O)c(O)c12 (centres unmarked) | µM | 4.5 |
| Cc1cc(/C=C2\C(=O)NC(=O)N(Cc3ccccc3Cl)C2=O)c(C)n1-c1ccc(C(=O)O)cc1 | µM | 12.6 |
| NC(=O)Cn1c(=O)n(Cc2ccco2)c(=O)c2c3c(sc21)CCCCC3 | µM | 10 |
| CC1=C(C(=O)OC(C)C)C(c2ccc(Cl)cc2)n2c(s/c(=C\c3ccc(OCC(=O)O)cc3)c2=O)=N1 (centres unmarked) | µM | 5.1 |
| O=c1nc(N/N=C/c2ccco2)cn[nH]1 | µM | 5 |
| Cc1cccc(NC(=O)CNC(=O)c2cccc(-n3cccc3)c2)c1C | µM | 6.5 |
| Cc1cc(/C=C2\C(=O)NC(=O)N(Cc3ccco3)C2=O)c(C)n1-c1ccc(C(=O)O)cc1 | µM | 14.1 |
| O=C1COc2ccc(C(=O)COC(=O)/C=C/c3ccc(Br)o3)cc2N1 | µM | 14.5 |

Query :: Any idea what its IC50 is? The molecule is COc1ccc2c(c1)c(=O)oc1cc(OCC(=O)NC3CCCCC3)ccc12
Result :: 5.6

Query :: Any idea what its IC50 is? The molecule is O=C(N/N=C/c1cccn1-c1cccc(C(=O)O)c1)Nc1ccccc1
Result :: 3.5

Query :: Any idea what its IC50 is? The molecule is CCNc1nc(NCC)n2c(SCC(=O)Nc3ccc(OC(F)F)cc3)nnc2n1
Result :: 11.5

Query :: Any idea what its IC50 is? The molecule is NS(=O)(=O)c1ccc(NC(=O)CSc2nnc(NC3CC3)s2)cc1
Result :: 10.2

Query :: Any idea what its IC50 is? The molecule is O=c1c(O)c(Br)ccc2c(Br)c(O)c(O)c(O)c12
Result :: 0.4

Query :: Any idea what its IC50 is? The molecule is O=C(/C=C/c1ccc(O)c(O)c1)O[C@H](Cc1ccc(O)c(O)c1)C(=O)O
Result :: 0.6

Query :: Any idea what its IC50 is? The molecule is O=C(CSc1nnc(CNC(=O)c2c(F)cccc2F)o1)NCc1ccco1
Result :: 45.7
